Data provenance: a melting point compilation (Tetko et al.; mined from patent text by program, amines drawn as free bases though some values may be those of a salt)

Consider the following compounds; for each one, report its melting point.

- compound: "O=C1N[C@@H](SC(c2ccccc2)(c2ccccc2)c2ccccc2)[C@@H]1CO (relative stereo)"
  endpoint value: "160 to 162 °C"
- compound: "OCc1cc2cc(Br)ccc2[nH]1"
  endpoint value: "111 to 112 °C"
- compound: "CCCN1CCN(c2nc(C)c(C(=O)NCc3cccnc3)s2)C1=O"
  endpoint value: "109 to 111 °C"
- compound: "CCOC(=O)/C=C1\\OC(=O)c2ccccc21"
  endpoint value: "132 to 134 °C"
- compound: "O=C1N(Cc2ccc(C(F)F)o2)c2ccccc2C12COc1cc3c(cc12)OCCO3 (stereo not given)"
  endpoint value: "173 to 175 °C"

Working through the 2 compounds below one at a time, give melting point for each.
1. CCCN(c1ccncc1)N1C(=O)C2(Cc3ccccc3C2)c2ccccc21
2. OC(CCN1CC=C(c2ccccc2)CC1)c1cccc2ccccc12 (stereo not given)

Ans.
1. 159 to 161 °C
2. 93 to 94 °C

Look up melting point for the entries below, preserving their order.
1. O=C(c1ccco1)c1cnn2c(-c3cccc(N4CCCCC4=O)c3)ccnc12
2. CCOC(=O)c1[nH]c2ccc(Cl)cc2c1-c1ccccc1F
3. CCOc1cc2c(cc1OC)C(=O)CC(C)(C)O2

Ans.
1. 159 to 160 °C
2. 191 to 193 °C
3. 120 to 122 °C

----------
Please provide measured melting point for the entries that follow.

- molecule: "CC(=O)Nc1nc(CCc2ccc(CN3CCNCC3)cc2)cs1"
  melting point: "164 to 166 °C"

Please give melting point, item by item, for the list that follows.
1. Cc1cc(-c2c(-c3ccc(F)cc3)ncn2CC2CC2)ccn1
2. c1ccc2cc(OC3CCC4(CCNCC4)CC3)ccc2c1
3. Cc1oc(-c2ccco2)nc1COc1ccc(CON=C(CCC(=O)O)c2ccccc2)cc1
4. CCC(C)C(OCc1ccccc1)C1C(C(=O)NCC(=O)O)NC(C2CC2)C1[N+](=O)[O-] (centres undefined)
5. CCCCC(OC(C)=O)c1ccccc1COc1cccc2cccnc12 (centres undefined)
6. CCCCSc1c2c(=O)n(C)c(=O)n(CC(C)C)c2cn1Cc1cccc2ccccc12

Ans.
1. 141 to 142 °C
2. 132 to 134 °C
3. 124 to 125 °C
4. 161 to 163 °C
5. 80 to 82 °C
6. 92 to 94 °C

// each listed molecule needs a value for melting point
1. CC[C@H](C)[C@H](NC(=O)OC(C)(C)C)C(=O)N[C@H](C(=O)N[C@@H](CC1CCCCC1)[C@@H](O)[C@@H](O)CC(C)C)[C@@H](C)CC
2. O=C(NCc1ncc(C(F)(F)F)cc1Cl)c1c(Cl)ccnc1Cl

Ans.
178 to 179 °C
122 to 124 °C

----------
Record form. Attribute: melting point. Fill in for each entry.

Example results:
- molecule: "Cc1[nH]c(=O)c(C#N)cc1-c1ccncc1"
  endpoint value: "> 300 °C"
- molecule: "O=Cc1cccc2cc3ccccc3cc12"
  endpoint value: "126 to 128 °C"
- molecule: "COC(=O)/C=C/c1cc([N+](=O)[O-])cn1C"
  endpoint value: "146 to 147 °C"
- molecule: "CNc1ccc(NC(=O)c2ccc(-c3[nH]nc4c3C(=O)c3c(NC(=O)NN5CCOCC5)cccc3-4)s2)cc1"
  endpoint value: "230 °C"
- molecule: "[N-]=[N+]=CC(=O)c1cccc(S(N)(=O)=O)c1"
  endpoint value: "142 °C"
- molecule: "COc1cc(N)c(Cl)cc1C(=O)NCC1CCN(CCCCNC(=O)c2cccc3ccccc23)CC1"
  endpoint value: "138 to 141 °C"
- molecule: "CC(C)OC(=O)c1ccc(NC(=O)N2CC(CCCC#N)C(c3ccc(Cl)cc3)=N2)cc1 (stereo not given)"
  endpoint value: "109 to 113 °C"
- molecule: "CC(Nc1c(-c2ccc(C#N)cc2)c(=O)c1=O)C(C)(C)C (stereo not given)"
  endpoint value: "192 to 194 °C"
- molecule: "O=C(Nc1ccc(Cl)cc1)C1=C(C(=O)Nc2cc(OC3CCCC3)c(Cl)cc2F)CCCC1"
  endpoint value: "221 to 222 °C"
- molecule: "S=C(N=c1ccn(-c2ccccc2)nc1)Nc1ccccc1"
  endpoint value: "171 to 173 °C"

Working through the 3 molecules below one at a time, give melting point for each.
1. CC1c2ccccc2-c2sc(Br)cc2N1S(=O)(=O)c1ccc(O)cc1 (stereo not given)
2. O=C(O)C=CC(=O)c1ccc(Oc2cccc(Cl)c2)cc1
3. CCCCCN(CC(=O)OC(C)(C)C)C(=O)C(CCC(=O)OC)CS(=O)(=O)c1ccc2ccccc2c1 (stereo not given)

Ans.
209 to 211 °C
110 to 111 °C
85 to 87 °C

----------
I'd appreciate it if you could supply melting point values for the items below.

- compound: "CCOC(=O)c1csc(Nc2ccc(Br)cn2)n1"
  attribute measured: "melting point"
  endpoint value: "300 to 301 °C"
- compound: "COc1ccc(OC)c(C(=O)N2CCc3cc(O)ccc3C2)c1"
  attribute measured: "melting point"
  endpoint value: "61 to 86 °C"
- compound: "O=C1Nc2cc(F)ccc2C1c1ncnc2c1cnn2C1CCCCC1 (stereo not given)"
  attribute measured: "melting point"
  endpoint value: "277 to 280 °C"
- compound: "CC(=O)N1CCc2cc(N)ccc21"
  attribute measured: "melting point"
  endpoint value: "183 to 185 °C"
- compound: "O=C(O)c1cc2cc3[nH]c(=O)[nH]c3cc2[nH]1"
  attribute measured: "melting point"
  endpoint value: "> 270 °C"

Below are 3 compounds. Give each one its melting point.
1. O=C(O)c1cc(=O)c2cc(C(F)(F)F)ccc2[nH]1
2. CC1(C)CCC(C)(C)c2c(O)cc(C=O)cc21
3. CC(NCC(O)c1cc(Cl)c(N)c(Cl)c1)C1CCCCC1 (stereo not given)

Ans.
287 to 289 °C
144 °C
106 to 108 °C

----------
attribute measured: melting point

- compound: "CCOC(=O)CCCn1c(=O)[nH]c2ccccc2c1=O"
  endpoint value: "133 to 135 °C"
- compound: "COC(=O)c1ccc(-c2nc(COc3ccc(CO)cc3OC)c(C)o2)cc1"
  endpoint value: "170 to 171 °C"
- compound: "C#CCc1cc(C(O)=S)cc(S(=O)(=O)Cl)c1Oc1ccccc1"
  endpoint value: "177 to 179 °C"
- compound: "c1ccc(-c2cn3cccnc3n2)cc1"
  endpoint value: "200 to 202 °C"
- compound: "CCOC1c2ccccc2-c2nccnc21 (stereo unspecified)"
  endpoint value: "> 300 °C"

Attention now shifts to the item below.
Qu. Input N#Cc1ccc2c(c1)c(C1CCC3(CC1)OCCO3)cn2Cc1ccccc1 , output reported melting point.
Ans. 129 to 130 °C

----------
For each entry below, report its melting point value.

Below: 5 compounds and their reported melting point.
- compound: "COc1ccc(CC(C)NCC(O)c2cccc(Cl)c2)cc1F (stereo not given)"
  endpoint value: "93 to 95 °C"
- compound: "CSc1nn2c(N)cc(C)nc2c1S(=O)(=O)c1ccc(C(C)(C)C)cc1"
  endpoint value: "> 230 °C"
- compound: "CC(C)c1cccc(C(C)C)c1NC(=O)CN1CCN(CCSc2nc3cccc([N+](=O)[O-])c3o2)CC1"
  endpoint value: "153 to 155 °C"
- compound: "O=C(O)c1cn2c3c(c(Cl)cc(Cl)c3c1=O)CCC2"
  endpoint value: "300 to 304 °C"
- compound: "CCOCc1nc2c(N)nc3ccc(NC(=O)C(C)C)cc3c2n1CC(C)(C)O"
  endpoint value: "259 to 261 °C"

Please look at the items below and tell me melting point for each one, in order.
1. CCOc1ccc([N+](=O)[O-])nc1C
2. Clc1nc(N2CC3CCC(CC3)C2)nc(N2CC3CCC(CC3)C2)n1
3. CCCc1c(CSc2ncccc2OCC(=O)O)ccc(C(C)=O)c1O
4. CC(C)(C)OC(=O)NC(Cc1ccc(O)cc1)C(=O)N1CCc2c(sc(N)c2C(=O)c2ccccc2)C1 (stereo not given)

Ans.
1. 82 to 84 °C
2. 195 to 200 °C
3. 157 °C
4. 143 to 145 °C

For every item below, please supply its melting point.
1. CC(=O)OCC1OC(n2cc(I)c(=O)[nH]c2=O)C(OC(C)=O)C1OC(C)=O (stereo not given)
2. O=C(c1ccc(Br)cc1Cl)N1Cc2cccn2Cc2ccccc21
3. CC(C)(C)c1cc(Nc2cccc(Cl)c2)cc(C(C)(C)C)c1O
4. CCCCC(=NOCc1ccc(OCc2nc(-c3ccccc3)oc2C)cc1)C(=O)O
5. COc1ccc(C=O)cc1OCc1ccc2ccccc2c1
6. O=C(O)CCOc1ccccc1CNC(=O)C1Cc2ccccc2N1S(=O)(=O)c1ccc(-c2cccc(C(F)(F)F)c2)cc1 (stereo not given)
7. CCOc1ccc(-n2c(-c3ccc(SC)cc3)nc(SC)c(C#N)c2=O)cc1

Ans.
175 to 179 °C
77 to 80 °C
110 to 111 °C
112 to 114 °C
80 °C
100 °C
209 to 213 °C

Respectfully, I request melting point for each entry included below.
1. COc1ccc2cc(C(=O)O)oc2c1
2. COc1ccc(-c2nc(Sc3ccc(C)cc3)n(C3CCCCO3)c2-c2ccc(OC)cc2)cc1 (stereo not given)
3. Cn1cc(C(=O)C(C)(C)C)c(=O)c(-c2cccc(C(F)(F)F)c2)c1
4. CC(=O)c1ccccc1-c1cccc(-n2cnc(-c3nc(C)no3)c2)c1

Ans.
208 to 211 °C
192 °C
86 to 88 °C
144 to 146 °C
